# Tested on: Marburg virus (MARV)
# PROCEDURE_TEXT: organism not typed
# Format: cell-based
# EXPERIMENTAL_PARAMETERS: Vero, 72 h, read-out: Percent viral inhibition MARV
QUANTITY: inhibition at 1 µM (%)
Provide only the numeric value, understood in %.

Exam item: Give the measured inhibition at 1 µM for CN1C2CC1CN(c1cnc(Oc3cc(CN4CCC(CC(=O)O)CC4)cc(-c4cc(Cl)cc(Cl)c4)n3)cn1)C2
Marked response: 47.9

Exam item: Supply recorded inhibition at 1 µM for CC(=O)NCC1CCN(Cc2cc(Oc3cnc(N4CCNCC4)cn3)nc(-c3cc(Cl)cc(Cl)c3)c2)CC1 here.
Marked response: 32.9

Exam item: Answer with the recorded inhibition at 1 µM for the compound listed here: CC(=O)NCC1CCN(Cc2cc(Oc3cnc(N4CCN(CCO)CC4)nc3)nc(-c3cc(Cl)cc(Cl)c3)c2)CC1
Marked response: 10.4

----------
# Test system: Chikungunya virus (CHIKV)
# PROCEDURE_TEXT: microbe, parasite or virus in culture
# Type: cell-based
# EXPERIMENTAL_PARAMETERS: Chikungunya virus, Vero, 48 h, read-out: Percent viral inhibition CHKV
QUANTITY: inhibition at 1 µM (%)
Only the number, expressed in %, is required.

Exam item: Supply recorded inhibition at 1 µM for CC(=O)NCC1CCN(Cc2cc(Oc3cnc(N4CCN(CCCS(N)(=O)=O)CC4)nc3)nc(-c3cc(Cl)cc(Cl)c3)c2)CC1 here.
Marked response: 36.1

Exam item: Supply recorded inhibition at 1 µM for O=C(O)CC1CCN(Cc2cc(Oc3ccc(N4CCCNCC4)nc3)nc(-c3cc(Cl)cc(Cl)c3)c2)CC1 here.
Marked response: 35.3

Exam item: Entry CN1CCN(c2ncc(Oc3cc(CN4CCC(CCS(N)(=O)=O)CC4)cc(-c4cc(Cl)cc(Cl)c4)n3)cn2)CC1 needs its inhibition at 1 µM filled in; supply it.
Marked response: 16.9

Exam item: Dear colleague, please send me the reported inhibition at 1 µM for CS(=O)(=O)CCC1CCN(Cc2cc(Oc3ccc(N4CCN(CCC(=O)O)CC4)nc3)nc(-c3cc(Cl)cc(Cl)c3)c2)CC1 when you can.
Marked response: 31.8

Exam item: Specify measured inhibition at 1 µM for CC(=O)NCC1CCN(Cc2cc(Oc3ccc(N4CCC5(CCNC5)C4)nc3)nc(-c3cc(Cl)cc(Cl)c3)c2)CC1 (stereo not drawn) .
Marked response: 21.6

Exam item: Write down inhibition at 1 µM measured for item CN1CCN(c2ncc(Oc3cc(CN4CCC(OC(C)(C)C(=O)O)CC4)cc(-c4cc(Cl)cc(Cl)c4)n3)cn2)CC1
Marked response: 24.2

Exam item: Output measured inhibition at 1 µM for this item: CN1C[C@@H]2C[C@H]1CN2c1ccc(Oc2cc(CN3CCC(CC(=O)O)CC3)cc(-c3cc(Cl)cc(Cl)c3)n2)cn1
Marked response: 23.6

Exam item: Consider the compound CN1CCN(c2cnc(Oc3cc(CN4CCC(CC(=O)O)CC4)cc(-c4cc(Cl)cc(Cl)c4)n3)cn2)CC1 . State its measured inhibition at 1 µM.
Marked response: 23.6

Exam item: Quote inhibition at 1 µM reported for CCNC(=O)CC1CCN(Cc2cc(Oc3ccc(N4CCN(CCCS(C)(=O)=O)CC4)nc3)nc(-c3cc(Cl)cc(Cl)c3)c2)CC1 please.
Marked response: 5.78
